Origin of values: patent US4297279A

MIC values by entry
system: Pseudomonas aeruginosa AJ 2116; experiment: Minimum Inhibitory Concentration (MIC) against Pseudomonas aeruginosa AJ 2116 in culture; format: cell-based; details: AJ2116, read-out: MIC (minimum concentration of the compound required to inhibit the growth of the test organism in a culture)
Entry rule: numbers only, all in µg/mL.

[
  {
    "MOLECULE": "CC(=O)OCC1=C(C(=O)O)N2C(=O)[C@@H](NC(=O)[C@H](NC(=O)c3nc[nH]c3C(=O)O)c3ccc(O)cc3)[C@H]2SC1",
    "EXPERIMENTAL_SYSTEM": "Pseudomonas aeruginosa AJ 2116",
    "READING_UNIT": "µg/mL",
    "MIC": 50
  }
]

In the following, a different molecule is considered.
Exercise: Which value of MIC has been reported for Cn1nnnc1SCC1=C(C(=O)O)N2C(=O)[C@@H](NC(=O)[C@H](NC(=O)c3nc[nH]c3C(=O)O)c3ccccc3)[C@H]2SC1 [Example 4, monohydrate] in the records?
Solution: 50
